# Test system: 92HT599 (CXCR4-tropic HIV-1 Subtype B virus)
# Test: PBMC assay, HIV-1 92HT599
# Format: cell-based
# Assay setup: Virus 92HT599, PBMCs
Readout name: TI (TC50/IC50)

>>> measurement("Cc1cn([C@H]2C[C@H](N=[N+]=[N-])[C@@H](CO)O2)c(=O)[nH]c1=O [AZT, reference compound]")
">665"
>>> measurement("O=C(O)c1ccc2c(c1)nc(Nc1cccc(Cl)c1)c1ccncc12")
2.18
>>> measurement("O=C([O-])c1ccc2c(c1)nc(Nc1cccc(C(F)(F)F)c1)c1nc(NC3CC3)ncc12.[Na+]")
2.65
>>> measurement("C#Cc1cccc(Nc2nc3cc(C(=O)[O-])ccc3c3cncnc23)c1.[Na+]")
3.07

* * *

# Test: Pharmacokinetics in dog (IV bolus or oral dose)
# Format: in vivo
# Assay setup: plasma; Dog, 1.6 mg/kg IV, different lot; read-out: Terminal T1/2 (converted)
Readout name: half-life (h)

>>> measurement("O=C(O)c1ccc2c(c1)nc(Nc1cccc(Cl)c1)c1ccncc12")
8.3

* * *

# Tested on: U937, latently infected with HIV-1 (U1 cells)
# Test: U1 latent infection assay, host cell cytotoxicity
# Type: cell-based
# Assay setup: U1 latent/induced, 72 hr; read-out: TC50 (the source's name)
Readout name: CC50 (µM)

>>> measurement("C#Cc1cccc(Nc2nc3cc(C(=O)[O-])ccc3c3cncnc23)c1.[Na+]")
17.1

* * *

# Test: Pharmacokinetics in mouse (IV bolus or oral dose)
# Format: in vivo
# Assay setup: mouse, plasma; mice, IV 5.4 mg/kg; read-out: Cmax-obs
Readout name: Cmax (ng/mL)

>>> measurement("C#Cc1cccc(Nc2nc3cc(C(=O)O)ccc3c3cncnc23)c1 [Compound 1]")
21800

* * *

# Test: Pharmacokinetics in mouse (IV bolus or oral dose)
# Format: in vivo
# Assay setup: mouse, plasma; mice, PO 10.8 mg/kg
Readout name: Tmax (min)

>>> measurement("C#Cc1cccc(Nc2nc3cc(C(=O)O)ccc3c3cncnc23)c1 [Compound 1]")
15

* * *

# Test: Pharmacokinetics in dog (IV bolus or oral dose)
# Type: in vivo
# Assay setup: plasma; Dog, 7.7 mg/kg PO, filled capsules, different lot; read-out: Terminal T1/2 (converted)
Readout name: half-life (h)

>>> measurement("O=C(O)c1ccc2c(c1)nc(Nc1cccc(Cl)c1)c1ccncc12")
9.9

* * *

# Test: Pharmacokinetics in rat (IV bolus or oral dose)
# Format: in vivo
# Assay setup: plasma, 5.2 mg/kg IV, 25 mM sodium phosphate buffer
Readout name: AUC(0-inf) (ng·h/mL)

>>> measurement("O=C(O)c1ccc2c(c1)nc(Nc1cccc(Cl)c1)c1ccncc12 [Compound K]")
44300

* * *

# Test: Phase I clinical study, safety and pharmacokinetics
# Format: in vivo, human
# Assay setup: human, in vivo; at steady state, patients, oral BID; read-out: terminal half life (converted)
Readout name: half-life

>>> measurement("O=C(O)c1ccc2c(c1)nc(Nc1cccc(Cl)c1)c1ccncc12")
"~1500 min"

* * *

# Test: Pharmacokinetics in dog (IV bolus or oral dose)
# Assay type: in vivo
# Assay setup: plasma; Dog, 8.2 mg/kg PO, filled capsules
Readout name: AUC(0-inf) (ng·h/mL)

>>> measurement("O=C(O)c1ccc2c(c1)nc(Nc1cccc(Cl)c1)c1ccncc12 [Compound K]")
5650

* * *

# Test: Pharmacokinetics in mouse (IV bolus or oral dose)
# Type: in vivo
# Assay setup: mouse, plasma; mice, IV 5.4 mg/kg
Readout name: AUC(0-inf) (ng·h/mL)

>>> measurement("C#Cc1cccc(Nc2nc3cc(C(=O)O)ccc3c3cncnc23)c1")
17000

* * *

# Test: Pharmacokinetics in mouse (IV bolus or oral dose)
# Type: in vivo
# Assay setup: in vivo; Mouse, 25 mg/kg PO; read-out: Cmax
Readout name: Cmax (ng/mL)

>>> measurement("O=C(O)c1ccc2c(c1)nc(Nc1cccc(Cl)c1)c1ccncc12")
311

* * *

# Test: Pharmacokinetics in rat (IV bolus or oral dose)
# Format: in vivo
# Assay setup: plasma, 5.2 mg/kg IV
Readout name: Cmax (ng/mL)

>>> measurement("O=C(O)c1ccc2c(c1)nc(Nc1cccc(Cl)c1)c1ccncc12")
38700

* * *

# Test: Pharmacokinetics in mouse (IV bolus or oral dose)
# Assay type: in vivo
# Assay setup: mouse, plasma; mice, IV 5.4 mg/kg; read-out: t1/2 (converted)
Readout name: half-life

>>> measurement("C#Cc1cccc(Nc2nc3cc(C(=O)O)ccc3c3cncnc23)c1 [Compound 1]")
"10.2 h"

* * *

# System: fresh human PBMCs
# Test: PBMC assay, host cell cytotoxicity
# Type: cell-based
# Assay setup: PBMCs; positive control; read-out: TC50 (the source's name)
Readout name: CC50

>>> measurement("Cc1cn([C@H]2C[C@H](N=[N+]=[N-])[C@@H](CO)O2)c(=O)[nH]c1=O [AZT, reference compound]")
"> 1000 nM"

* * *

# Test: Pharmacokinetics in dog (IV bolus or oral dose)
# Type: in vivo
# Assay setup: plasma; Dog, 8.2 mg/kg PO, filled capsules
Readout name: Cmax (ng/mL)

>>> measurement("O=C(O)c1ccc2c(c1)nc(Nc1cccc(Cl)c1)c1ccncc12 [Compound K]")
2180

* * *

# Test: Pharmacokinetics in dog (IV bolus or oral dose)
# Assay type: in vivo
# Assay setup: dog, plasma, iv, 1.6 mg/kg
Readout name: AUC(0-inf) (ng·h/mL)

>>> measurement("O=C(O)c1ccc2c(c1)nc(Nc1cccc(Cl)c1)c1ccncc12 [Compound K]")
1640

* * *

# Tested on: 92HT599 (CXCR4-tropic HIV-1 Subtype B virus)
# Test: PBMC assay, HIV-1 92HT599
# Assay type: cell-based
# Assay setup: Virus 92HT599, PBMCs; positive control
Readout name: IC50 (nM)

>>> measurement("Cc1cn([C@H]2C[C@H](N=[N+]=[N-])[C@@H](CO)O2)c(=O)[nH]c1=O [AZT, reference compound]")
1.5

* * *

# Test: Pharmacokinetics in mouse (IV bolus or oral dose)
# Type: in vivo
# Assay setup: mouse, plasma, po, 10.8 mg/kg, mice, PO 10.8 mg/kg; read-out: AUC(0-24 h)
Readout name: AUC(0-t)

>>> measurement("C#Cc1cccc(Nc2nc3cc(C(=O)O)ccc3c3cncnc23)c1 [Compound 1]")
"2210 ng·h/mL"

* * *

# Test: Pharmacokinetics in dog (IV bolus or oral dose)
# Format: in vivo
# Assay setup: plasma; Dog, 1.9 mg/kg IV; read-out: Vdss
Readout name: Vd

>>> measurement("O=C(O)c1ccc2c(c1)nc(Nc1cccc(Cl)c1)c1ccncc12")
"8.9 L/kg"

* * *

# Test: Pharmacokinetics in rat (IV bolus or oral dose)
# Format: in vivo
# Assay setup: plasma, 10.5 mg/kg PO, read-out: Terminal T1/2 (converted)
Readout name: half-life (h)

>>> measurement("O=C(O)c1ccc2c(c1)nc(Nc1cccc(Cl)c1)c1ccncc12")
12.3

* * *

# Test system: fresh human PBMCs
# Test: PBMC assay, host cell cytotoxicity
# Type: cell-based
# Assay setup: PBMCs; read-out: TC50 (the source's name)
# CC50 per entry
Readout name: CC50 (µM)

>>> measurement("O=C([O-])c1ccc2c(c1)nc(Nc1cccc(C(F)(F)F)c1)c1nc(NC3CC3)ncc12.[Na+] [Compound 2 Na]")
12
>>> measurement("C#Cc1cccc(Nc2nc3cc(C(=O)[O-])ccc3c3cncnc23)c1.[Na+] [Compound 1 Na]")
3.53

* * *

# Test: Pharmacokinetics in rat (IV bolus or oral dose)
# Type: in vivo
# Assay setup: plasma, 10.5 mg/kg PO
Readout name: Cmax (ng/mL)

>>> measurement("O=C(O)c1ccc2c(c1)nc(Nc1cccc(Cl)c1)c1ccncc12 [Compound K]")
7370

* * *

# Test: U1 latent infection assay, host cell cytotoxicity
# Assay type: cell-based
# Assay setup: human, U1 latent/induced, positive control, read-out: TC50
Readout name: CC50 at 72 h

>>> measurement("O=c1c2ccccc2n2nnc3ccc(NCCCN4CCN(CCCNc5ccc6nnn7c8ccccc8c(=O)c5c67)CC4)c1c32 [Temacrazine, reference compound]")
"> 100 nM"

* * *

# Test: Pharmacokinetics in dog (IV bolus or oral dose)
# Assay type: in vivo
# Assay setup: plasma; Dog, 1.9 mg/kg IV, 25 mM sodium phosphate buffer
Readout name: AUC(0-inf)

>>> measurement("O=C(O)c1ccc2c(c1)nc(Nc1cccc(Cl)c1)c1ccncc12")
"2540 ng·h/mL"

* * *

# Test: Pharmacokinetics in mouse (IV bolus or oral dose)
# Format: in vivo
# Assay setup: mouse, plasma; mice, PO 10.8 mg/kg; read-out: t1/2 (converted)
# Experimental: The pharmacokinetics properties of drugs were investigated in three species, following an intravenous (IV) bolus or oral (PO) dose of Compound K at the dosages indicated in the chart. Blood samples were collected at predetermined times and the plasma separated. […] Drug levels were quantified by the LC/MS/MS method described below. […] The terminal t1/2 and C0 were calculated using the last three and the first three data points, respectively […]
Readout name: half-life (h)

>>> measurement("C#Cc1cccc(Nc2nc3cc(C(=O)O)ccc3c3cncnc23)c1")
21.5

// data source = patent US20100267753A1
